Overview of reported GI50 across a group of molecules:
Tested on: MDA-MB-468 breast
Test: NCI tumour cell line growth inhibition, 48 h

Consider the following illustrative entries.
GI50 value, target or system MDA-MB-468 breast, for CC[C@@]12C=CCN3CC[C@]4(c5cc(NC(=O)COc6cc(OCC(=O)Nc7cc8c(cc7OC)N(C)[C@H]7[C@@](O)(C(=O)OC)[C@H](OC(C)=O)[C@]9(CC)C=CCN%10CC[C@]87[C@@H]%109)cc7oc(-c8ccccc8)cc(=O)c67)c(OC)cc5N(C)[C@@H]4[C@](O)(C(=O)OC)[C@H]1OC(C)=O)[C@H]32 : 2250 nM

GI50 value, target or system MDA-MB-468 breast, for C/C(=C(/c1ccc(O)cc1)c1ccc(Cl)cc1)c1ccccc1 : 601 nM

GI50 value, target or system MDA-MB-468 breast, for Clc1ccc2c(NCCNC34CC5CC(CC(C5)C3)C4)ccnc2c1 : 435 nM

---
GI50 value, target or system MDA-MB-468 breast, for CC(C(=O)O)c1ccc(-c2ccccc2)c(F)c1 (configuration not stated) : > 100000 nM

GI50 value, target or system MDA-MB-468 breast, for Cc1cc2nc(-c3c(N)ncc(C#N)c3-c3ccc(Cl)cc3)[nH]c2cc1C : 12400 nM

GI50 value, target or system MDA-MB-468 breast, for COc1cc(/C=C2\CN(C(=O)CCN3CCC(=NO)CC3)C/C(=C\c3cc(OC)c(OC)c(OC)c3)C2=O)cc(OC)c1OC : 342 nM

GI50 value, target or system MDA-MB-468 breast, for Oc1c(CN2CCCC2)cc(CSCc2ccccc2)c2cccnc12 : 1200 nM

GI50 value, target or system MDA-MB-468 breast, for CC(=O)c1cccc(-c2cccc(-c3ccn(CCN4CCOCC4)n3)c2)c1 : 15200 nM

GI50 value, target or system MDA-MB-468 breast, for Cn1cc(C2=C(c3cn(C)c4cc(N)ccc34)C(=O)NC2=O)c2ccccc21 : 1560 nM

GI50 value, target or system MDA-MB-468 breast, for COc1cc2c(c(OC)c1OC)-c1ccc(O)c(=O)cc1[C@@H](NC(C)=O)CC2 : 4110 nM

GI50 value, target or system MDA-MB-468 breast, for N=c1ccc2nc3c(cc(N)c4ccccc43)oc-2c1 : 86.5 nM

GI50 value, target or system MDA-MB-468 breast, for C[C@]12CC[C@@H](OC(=O)N(CCCl)N=O)C[C@@H]1CC[C@@H]1[C@@H]2CC[C@]2(C)C(=O)CC[C@@H]12 : 867 nM
